The following compounds are shown together with reported Ki values.
Biological target: UniProtKB P47936
Report only the number, with the unit nM understood.

CCCCC/C=C\C/C=C\C/C=C\C/C=C\CCCCOC(=O)NC1CC1 = 983
CCCCC/C=C\C/C=C\C/C=C\C/C=C\CCCCOC(=O)NC1CCCCC1 = 781
CCCCCN(C)C/C=C\C/C=C\C/C=C\C/C=C\CCCCNC(C)=O [Compound A25] = 3650
CCCCC/C=C\C/C=C\C/C=C\C/C=C\CCCCNC(=O)OC[C@H](C)O = 289
CCCCCN(C)C/C=C\C/C=C\C/C=C\C/C=C\CCCCNC(=O)c1ccc(O)cc1 [Compound A27] = 2560
CCCCCN(C)C/C=C\C/C=C\C/C=C\C/C=C\CCCCNC(C)=O [Compound A23] = 1760
CCCCC/C=C\C/C=C\C/C=C\C/C=C\CCCCOC(=O)NC(C)C = 543
CCCCC/C=C\C/C=C\C/C=C\C/C=C\CCCCOC(=O)Nc1cccnc1 = 185

Incoming: Consider the compound O=C(CCC/C=C\C/C=C\C/C=C\C/C=C\CCCCCO)NC1CC1 and give its measured Ki.
Outgoing: 38.7

* * *

Biological target: CB1 cannabinoid receptor (Rattus norvegicus)
Construct: membranes were prepared from rat forebrain membranes; from tissue; host or cells: rat forebrain
Sequence (P20272 whole entry): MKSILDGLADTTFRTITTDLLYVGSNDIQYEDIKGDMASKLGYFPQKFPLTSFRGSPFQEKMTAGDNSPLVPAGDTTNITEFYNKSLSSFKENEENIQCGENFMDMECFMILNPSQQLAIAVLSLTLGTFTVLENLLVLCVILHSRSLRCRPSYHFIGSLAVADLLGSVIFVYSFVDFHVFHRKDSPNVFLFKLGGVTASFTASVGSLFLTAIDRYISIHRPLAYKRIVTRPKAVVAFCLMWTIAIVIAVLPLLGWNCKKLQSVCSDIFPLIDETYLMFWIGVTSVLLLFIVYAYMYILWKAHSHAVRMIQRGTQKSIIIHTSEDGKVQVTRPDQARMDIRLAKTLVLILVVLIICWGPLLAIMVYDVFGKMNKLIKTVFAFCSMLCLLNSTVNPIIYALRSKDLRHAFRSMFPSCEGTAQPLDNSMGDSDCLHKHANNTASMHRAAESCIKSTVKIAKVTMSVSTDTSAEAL
Test: CB1 receptor binding, [3H]CP-55,940 displacement
Details: without PMSF (first value of cell); rat forebrain membranes; read-out: Ki CB1 (nM) (o/w PMSFQ)
Field: label. Allowed values: Met (Ki < 200 nM) or Not met (Ki >= 200 nM).

Examples with answers:
[N-]=[N+]=NCCCCC/C=C\C/C=C\C/C=C\C/C=C\CCCC(=O)NC1=NCCS1 [Compound A14] = Not met
O=C(CCC/C=C\C/C=C\C/C=C\C/C=C\CCc1ccccc1)Nc1ccc(O)cc1 [Compound A3] = Met
O=C(CCC/C=C\C/C=C\C/C=C\C/C=C\CCCCCCl)NC1CC1 [Compound A20] = Met
O=C(CCC/C=C\C/C=C\C/C=C\C/C=C\CCCCCO)NC1CC1 [Compound A17] = Not met
CC(C)NC(=O)CCC/C=C\C/C=C\C/C=C\C/C=C\CCCCN=C=S [Compound A10] = Met
O=C(CCC/C=C\C/C=C\C/C=C\C/C=C\CCCCc1ccccc1)NCC1CC1 [Compound A1] = Met

Could you now look at the following compound, please?
Incoming: Hello, is Ki of the following compound strictly smaller than 200 nM? COc1cc(CNC(=O)CCC/C=C\C/C=C\C/C=C\C/C=C\CCCCN=C=S)ccc1O [Compound A12]
Outgoing: Met

* * *

Tested on: anandamide transporter
Assay: [3H]Anandamide transporter competition assay
Format: cell-based
Conditions: human CCF-STG1 astrocytoma cells, 10 nM [3H]anandamide; read-out: IC50 (AT inhib.)
The following compounds are shown together with reported IC50 values.

Below: 4 compounds and their reported IC50.
CCCCC/C=C\C/C=C\C/C=C\C/C=C\CCCCOC(=O)Nc1cccnc1 [Compound B11] = 16.1 µM
CCCCCC=CCC=CCC=CCC=CCCCCOC(=O)NCC(C)O (stereo not drawn) [Compound B3] = 1.5 µM
CCCCC/C=C\C/C=C\C/C=C\C/C=C\CCCCOC(=O)NC1CC1 [Compound B6] = 15.5 µM
CCCCC/C=C\C/C=C\C/C=C\C/C=C\CCCCOC(=O)NC(C)C [Compound B5] = 21.9 µM

Incoming: Consider the compound CCCCC/C=C\C/C=C\C/C=C\C/C=C\CCCCOC(=O)N[C@@H](C)CO [Compound B2] and give its measured IC50.
Outgoing: 6.4 µM

Incoming: Consider the compound CCCCC/C=C\C/C=C\CCCCCCCCOC(=O)NC[C@H](C)O [Compound B14] and give its measured IC50.
Outgoing: 7.21 µM

Incoming: Consider the compound CCCCCCCCC=CCCCCCCCCOC(=O)NCC(C)O (stereo not drawn) [Compound B13] and give its measured IC50.
Outgoing: 5.92 µM

Incoming: Consider the compound CCCCC/C=C\C/C=C\C/C=C\C/C=C\CCCCOC(=O)NC1CCCCC1 [Compound B8] and give its measured IC50.
Outgoing: 33 µM

Incoming: Consider the compound CCCCC/C=C\C/C=C\C/C=C\C/C=C\CCCCOC(=O)N[C@H](C)CO [Compound B1] and give its measured IC50.
Outgoing: 7.1 µM

* * *

Target: CB1 cannabinoid receptor (Rattus norvegicus)
Construct: membranes were prepared from rat forebrain membranes; from tissue; host or cells: rat forebrain
Assay: CB1 receptor binding, [3H]CP-55,940 displacement
Settings: with PMSF (second value of cell); rat forebrain membranes; read-out: Ki CB1 (nM) (o/w PMSFQ)
EXPERIMENTAL_ENDPOINT: Ki (nM)
Report only the number, with the unit nM understood.

CC(C)NC(=O)CCC/C=C\C/C=C\C/C=C\C/C=C\CCCCN=C=S = 7.7
O=C(CCC/C=C\C/C=C\C/C=C\C/C=C\CCCCCBr)NC1CC1 = 0.16
[N-]=[N+]=NCCCCC/C=C\C/C=C\C/C=C\C/C=C\CCCC(=O)Nc1ccc(O)cc1 = 531

--- query ---
Incoming: Consider the compound O=C(CCC/C=C\C/C=C\C/C=C\C/C=C\CCc1ccccc1)NCC1CC1 and give its measured Ki.
Outgoing: 129

* * *

Target: CB2 receptor (Mus musculus)
Sequence (P47936 whole entry): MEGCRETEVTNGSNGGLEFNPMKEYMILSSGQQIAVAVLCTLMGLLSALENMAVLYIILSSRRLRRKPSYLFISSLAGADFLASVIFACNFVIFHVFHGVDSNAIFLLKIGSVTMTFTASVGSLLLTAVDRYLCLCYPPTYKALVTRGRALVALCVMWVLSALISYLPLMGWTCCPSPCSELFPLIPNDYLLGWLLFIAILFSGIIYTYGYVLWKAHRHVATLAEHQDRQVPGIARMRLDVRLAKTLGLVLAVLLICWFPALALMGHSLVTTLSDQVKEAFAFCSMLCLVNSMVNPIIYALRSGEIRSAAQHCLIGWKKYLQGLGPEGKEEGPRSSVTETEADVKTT
EXPERIMENTAL_ENDPOINT: pKi
pKi (log units): -log10 of the concentration in mol/L.

Below: 4 compounds and their reported pKi.
[N-]=[N+]=NCCCCC/C=C\C/C=C\C/C=C\C/C=C\CCCC(=O)NC1CC1 [Compound A5] = 7.24
N#CCCCCC/C=C\C/C=C\C/C=C\C/C=C\CCCC(=O)NC1CC1 [Compound A19] = 8.24
O=C(CCC/C=C\C/C=C\C/C=C\C/C=C\CCCCN=C=S)NCC1CC1 [Compound A11] = 7.15
[N-]=[N+]=NCCCCC/C=C\C/C=C\C/C=C\C/C=C\CCCC(=O)Nc1ccc(O)cc1 [Compound A13] = 6.48

--- query ---
Incoming: API: value(readout=pKi, system=CB2 receptor (Mus musculus)) for record O=C(CCC/C=C\C/C=C\C/C=C\C/C=C\CCc1ccccc1)Nc1nccs1 [Compound A4]
Outgoing: 5.91
